# Subject Of Test: T1, human TROP2-his protein (human, UniProt P09758 27-274)
# T1 construct: Biotin-labelled in the ELISAs, unlabelled analyte in Biacore; also called biotin-labeled human TROP2-his protein; biotin human Trop2-his
# T1 sequence: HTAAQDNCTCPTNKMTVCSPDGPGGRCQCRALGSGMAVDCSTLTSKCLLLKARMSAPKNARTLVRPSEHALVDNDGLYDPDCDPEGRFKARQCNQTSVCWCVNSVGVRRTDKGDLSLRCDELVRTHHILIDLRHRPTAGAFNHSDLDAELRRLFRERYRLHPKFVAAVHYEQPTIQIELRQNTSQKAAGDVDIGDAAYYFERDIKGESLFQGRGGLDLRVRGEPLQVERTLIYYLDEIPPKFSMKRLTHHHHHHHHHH
# Protocol Summary: SPR Biacore T200, mAb captured on anti-mouse IgG CM5 chip, TROP2-his analyte
Form field: kon (one value per entry).
Report only the number, with the unit M⁻¹ s⁻¹ understood.

Sample answers from the record:
Binder | Result Units | kon
mouse antibody A1E11A12D1 (antibody, V domains shown, Mouse monoclonal IgG purified from hybridoma supernatant) VH: QVQLQQSGAELARPGASVKLSCMASGYTFTTYGISWVRQRTGQGLEWIGQIYPGSDYSYCDEDFKGKATLTADKSSSTAYMQLSSLTSEDSAVYFCARASYFDYWGQGTTLTVSS VL: DILLTQSPAILSVSPGERVSFSCRASQTIGTAIHWYQQRANGSPRLLIKYASESISGIPSRFSGSGSGTDFALSINTVESEDFAYYYCQQSNNWPFTFGGGTKLEIR | M⁻¹ s⁻¹ | 525000
mouse antibody A1H3C5H8E12 (antibody, V domains shown, Mouse monoclonal IgG purified from hybridoma supernatant) VH: QVQLQQSGAELVRPGTSVKMSCKAAGYTFTNYWIDWVKQRPGHGLEWIGNIFPGGFYTNYNEKFKGKATLTADTSSSTAYMQLSSLTSEDSAIYYCARGGVFDYWGQGTTLTVSS VL: DILLTQSPAILSVSPGERVSFSCRASQSIGTSIHWYQQRTNGSPRLLIKYASESISGIPSRFSGSGSGTDFTLSINSVESEDIADYYCQQSNSWPYTFGGGTKLEIK | M⁻¹ s⁻¹ | 531000
mouse antibody A1B12D2B4E7B3 (antibody, V domains shown, Mouse monoclonal IgG purified from hybridoma supernatant) VH: EVQLQQSGPELVKPGASVKMSCKASGFTFTDYYMNWVKQSHGKSLEWIGYIYPNHGGTGYNQKFKDKATLTVDKSSSTAYMELRSLTSDDSAVYYCARENYGYAMDYWGQGTSVTVSS VL: DVVMTQTPLSLPVSLGDQASISCRSSQSLVHGDGNTYLHWFLQKPGQSPKLLIYTVSNRFSGVPDRFSGSGSGTDFTLKINRVEAEDLGIYFCSQTTHVPTFGGGTKLEIK | M⁻¹ s⁻¹ | 84000

Please look at the following binder next.
Task: # get_value(readout='kon', item= mouse antibody A1E4F7D4 (antibody, V domains shown, Mouse monoclonal IgG purified from hybridoma supernatant; also called Mouse A1E4F7D4) VH: QVQLQQSGAELAKPGTSVKMSCEASGYSFTTHWIHWMKQRPGQGLEWIGTIFPSNAYAVYNQKFRDRAIMTADRSSTTAYIQLTGLTSEDSAVYYCARASYFDYWGQGTTLTVSS VL: DILLTQSPATLSVSPGERVTFSCRASQNIGTSIHWFQQRTTGSPRLLIKYASESISGIPSRFSGSGSGTDFTLHINSVESEDIAHYYCQHSHSWPFTFGSGTKLEIQ )
Result: 373000
